# Tested on: HT29 colon
# assay comment: NCI tumour cell line growth inhibition, 48 h
value kind: TGI

[[record]]
molecule = "COC1/C=C/C(C)C(O)CC(O)/C=C/C(C)C(C(C)C(OC)C(C)CCC(=O)C(C)C(C/C=C/N(C)C=O)OC)OC(=O)/C=C/C=C(\\C)CC(OC)CC2=CC(=O)O[C@@H](C(C)C(OC)C1)[C@H]2O (some centres not stated)"
reported_measurement = "0.741 µM"

[[record]]
molecule = "CC(=O)N1[C@H](C(=O)O)CS[C@H]1c1ccc(F)cc1"
reported_measurement = "> 100 µM"


Record TGI per entry; entries follow.
1. CN(C)CCC(=O)Nc1ccc(-n2cc(-c3cccc(NC(=S)Nc4cccc(-c5cn(-c6ccc(NC(=O)CCN(C)C)cc6)nn5)c4)c3)nn2)cc1
2. CCCCCCCC/C=C/CCCCCCCC1=NC(C)(C)CN1C(C)(C)CO
3. Cc1n[nH]c2ccccc2c1=O
4. O=C1c2cc3c(cc2-c2c1c1cc(F)c(F)cc1c(=O)n2CCCn1ccnc1)OCO3
5. c1ccc2c(c1)[nH]c1c2nc2ccccn21

Result:
> 100 µM
3.38 µM
> 100 µM
> 100 µM
> 100 µM

* * *

# Test system: HS 578T breast
# assay comment: NCI tumour cell line growth inhibition, 48 h
value kind: TGI

The examples below pair each entry with its known result.
[[record]]
compound = "O=C(O)CSC(CC(=O)c1ccc(Cl)cc1)c1ccc(Cl)cc1 (stereo not drawn)"
reported_measurement = "> 100 µM"

[[record]]
compound = "C=C1CCC[C@@H](C)C(O)[C@@H]2OC(=O)C(=C)[C@@H]2C[C@@H](OC(C)=O)[C@@]2(C)CC[C@@H]1O2 (stereo partly drawn)"
reported_measurement = "29.4 µM"

[[record]]
compound = "ClC1=NN=C(c2c[nH]c3ccccc23)CC1NCc1ccccc1 (stereo not drawn)"
reported_measurement = "> 100 µM"

[[record]]
compound = "Cc1ccccc1NC(=O)O/N=C(\\Cl)C(C)C"
reported_measurement = "58.5 µM"

[[record]]
compound = "O=C(CNc1ccccc1C(=O)O)Nn1cnc2ccc(S(=O)(=O)Nc3ccccc3C(=O)O)cc2c1=O"
reported_measurement = "> 100 µM"


Please supply TGI for each of the following items, keeping them in order.
1. CC(C)C[C@@H](N)[C@@H](O)C(=O)N[C@H](C(=O)N[C@H](C(=O)N[C@@H](CC(=O)O)C(=O)O)C(C)C)C(C)C
2. CCOC(=O)c1cc(-c2ccc(OC)cc2)c([N+](=O)[O-])[nH]1
3. CC1OC(OC2C(O[C@H]3CC[C@@]4(C)C(=CC[C@H]5[C@@H]6C[C@@H]7O[C@]8(CC[C@@H](C)CO8)[C@@H](C)[C@@H]7[C@@]6(C)CC[C@@H]54)C3)OC(CO)C(O)C2OC2OC(CO)C(O)C(O)C2O)C(O)C(O)C1O (stereo partly drawn)

Result:
1. > 20 µM
2. > 10 µM
3. 3.74 µM

* * *

Kindly state TGI for each of the entries shown.
# Tested on: NCI-H522 lung
# assay comment: NCI tumour cell line growth inhibition, 48 h

Example molecules with recorded TGI:
[[record]]
molecule = "CC1CCC2C(C)C(=O)OC2C2(C)C(=O)C=CC12 (stereo unspecified)"
reported_measurement = "> 10 µM"

[[record]]
molecule = "N[C@@H](CCC(=O)NC(Cc1ccccc1)C(=O)NCP(=O)(O)O)C(=O)O (stereo partly specified)"
reported_measurement = "> 100 µM"

[[record]]
molecule = "ClC1=NN=C(c2c[nH]c3ccccc23)CC1NCc1ccccc1 (stereo unspecified)"
reported_measurement = "> 100 µM"

[[record]]
molecule = "COc1cccc2c1C(=O)c1c(O)c3c(c(O)c1C2=O)C[C@@](O)(C(C)=O)CC3OC1CC(OC2CC(N)C(O)C(C)O2)C(O)C(C)O1 (stereo partly specified)"
reported_measurement = "> 100 µM"

[[record]]
molecule = "O=c1c(-c2ccc3c(c2)OCO3)coc2c3c(ccc12)OCO3"
reported_measurement = "37.5 µM"


Consider now this further molecule.
// recorded TGI for COC(=O)C1C=CCC2CCCCC21N1CCCC1 (stereo unspecified) : > 100 µM
